Reported self-splicing fitness (ln) is given for each of the following sequences.
- test-method-notes: self-splicing fitness, log relative to wild type (ln ratio); higher = more splicing; Tetrahymena group I intron in knt gene, E. coli kanamycin selection, DiMSum; sequences stand for … in CUCUCU…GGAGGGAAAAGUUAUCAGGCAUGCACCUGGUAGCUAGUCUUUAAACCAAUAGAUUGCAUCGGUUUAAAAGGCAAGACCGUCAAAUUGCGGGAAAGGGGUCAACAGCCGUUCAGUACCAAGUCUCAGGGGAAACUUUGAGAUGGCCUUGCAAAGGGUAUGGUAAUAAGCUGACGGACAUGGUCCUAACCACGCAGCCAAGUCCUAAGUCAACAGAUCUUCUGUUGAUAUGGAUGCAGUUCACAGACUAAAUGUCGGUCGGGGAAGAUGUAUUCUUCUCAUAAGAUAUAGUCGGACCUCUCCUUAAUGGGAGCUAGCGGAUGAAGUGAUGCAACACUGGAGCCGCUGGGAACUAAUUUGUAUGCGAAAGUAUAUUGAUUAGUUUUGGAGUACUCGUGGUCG;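 note: selection with 25 µg/mL kanamycin versus none on LB agar overnight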
- assay-setup: 30 °C
measured-parameter: self-splicing fitness (ln)

- UUGUAGCAAUAUUACGGUUG: -2.38
- AGAGAGCAAUAUUACGGCAG: -1.51
- UACUAGCAAUAUUACGUCAA: -1.32
- GGGUAGCAAUAUUACGGGAU: -3.17
- CCAGAGCAAUAUUACGAAUG: -1.73
- GGGCAGCAAUAUUACGUCUC: -2.15
- AAUAAGCAAUAUUACGCGUU: -3.75
- UAAGAGCAAUAUUACGGACA: -1.78
- GAUUAGCAAUAUUACGAGUG: -1.25
- GGUGAGCAAUAUUACGGAUG: -3.73
- GACUAGCAAUAUUACGAAUU: -1.35
- AUGCAGCAAUAUUACGCGUC: -3.6
- UCUUAGCAAUAUUACGAUCU: -2.59
- GUGCAGCAAUAUUACGCGCU: -3.16
- AGAAAGCAAUAUUACGGGCG: -0.886
- GAUGAGCAAUAUUACGUGGU: -3.36
- UCUCAGCAAUAUUACGCACG: -2.2
- CUGUAGCAAUAUUACGUUUA: -3.7
- ACUUAGCAAUAUUACGGGAU: -2.08
- GGUCAGCAAUAUUACGUGAG: 0.0154
- GUGUAGCAAUAUUACGGCUG: -3.23
- AAGGAGCAAUAUUACGAUGG: -3.59
- CGCAAGCAAUAUUACGCAUU: -4.11
- GGAGAGCAAUAUUACGGAAG: -2.47
- CACAAGCAAUAUUACGCAAA: -3.29
- AGGAAGCAAUAUUACGGUCU: -0.784
- GCAAAGCAAUAUUACGGCCA: -2.11
- GUCCAGCAAUAUUACGAGGA: -2.98
- GACUAGCAAUAUUACGACAG: -2.92
- UCAAAGCAAUAUUACGAUUU: -3.58
- AUUAAGCAAUAUUACGGUAG: -4.09
- UCCAAGCAAUAUUACGCUUA: -3.43
- GGCAAGCAAUAUUACGCAAA: -0.878
- GACUAGCAAUAUUACGCGAA: -1.83
- CGUCAGCAAUAUUACGUGGA: -3.65
- AGAUAGCAAUAUUACGACCU: 0.592
- AGUCAGCAAUAUUACGGUAU: -0.592
- GACCAGCAAUAUUACGGCUG: -3.68
- GCAAAGCAAUAUUACGCGCU: -3.48
- GAAGAGCAAUAUUACGGAGU: -3.07
- GGGAAGCAAUAUUACGGUUC: -2.44
- GUAGAGCAAUAUUACGUCCA: -2.45
- CCUCAGCAAUAUUACGUGAU: -2.84
- AUCCAGCAAUAUUACGCCAC: -2.03
- UCGGAGCAAUAUUACGACAU: -3.91
- UCACAGCAAUAUUACGCUCC: -2.21
- AUGCAGCAAUAUUACGAAAG: -2.87
- AAUGAGCAAUAUUACGUUCG: -1.74
- AGUUAGCAAUAUUACGUAAC: -4.54
- UGGAAGCAAUAUUACGCAGG: -3.1
- CUUCAGCAAUAUUACGUUUA: -3.96
- UGAUAGCAAUAUUACGCCGU: -4.2
- CUGCAGCAAUAUUACGAUUA: -3.35
- CCACAGCAAUAUUACGAUCA: -2.69
- GUGUAGCAAUAUUACGCCUA: -1.92
- GCGAAGCAAUAUUACGAUCG: -2.49
- ACCAAGCAAUAUUACGGGGA: -2.16
- UACUAGCAAUAUUACGGAGC: -1.89
- UAUAAGCAAUAUUACGACAA: 0.0108
- AUCUAGCAAUAUUACGUCUC: -2.8
- GAUUAGCAAUAUUACGCUCA: -0.572
- UUAGAGCAAUAUUACGGUGU: -2.05
- CGGUAGCAAUAUUACGCACU: -1.64
- UCUCAGCAAUAUUACGUAUG: -2.86
- GGCUAGCAAUAUUACGUAGA: -0.208
- CGAUAGCAAUAUUACGAACC: -2.68
- CCUUAGCAAUAUUACGUAUC: -4.15
